Reported Activity of soybean GST enzyme, Ethacrynic Acid values for the following molecules.
assay: GST conjugation activity with ethacrynic acid (HPLC); assay type: biochemical; details: 0.4 mM electrophilic substrate, 4 mM glutathione, 0.1 M MOPS pH 7.0, corrected for uncatalyzed reaction
outcome-measure: Activity of soybean GST enzyme, Ethacrynic Acid (nmol/min/mg)

molecule	reported
se1.pk0017.f5: soybean type IV GST encoded by cDNA insert in clone se1.pk0017.f5 (protein) MASLGVRPVLPPPLTSISDPPPLFDGTTRLYISYSCPYAQRVWIARNYKGLQDKINLVPINLQDRPAWYKEKVYPENKVPSLEHNGKVLGESLDLIKYVDANFEGTPLFPSDPAKKEFGEQLISHVDTFSKDLFVSLKGDAVQQASPAFEYLENALGKFDDGPFLLGQFSLVDIAYIPFVERFQIVFAEVFKHDITEGRPKLATWFEELNKLNAYTETRVDPQEIVDLFKKRFLPQQ	3
ssm.pk0067.g5: soybean type III GST encoded by cDNA insert in clone ssm.pk0067.g5 (protein) MASYHEEEVRLLGKWASPFSNRVDLALKLKGVPYKYSEEDLANKSADLLKYNPVHKKVPVLVHNGNPLPESLIIVEYIDETWKNNPLLPQDPYERALARFWSKTLDDKILPAIWNACWSDENGREKAVEEALEALKILQETLKDKKFFGGESIGLVDIAANFIGYWVAILQEIAGLELLTIEKFPKLYNWSQDFINHPVIKEGLPPRDELFAFFKASAKK	13
se6.pk0037.h4: soybean type III GST encoded by cDNA insert in clone se6.pk0037.h4, expressed in E. coli (protein) MAATQEDVTLLGVVGSPFVCRVQIALKLKGIECKFLEENLANKSDLLLKSNPVYKKVPVFIHNEKPIAESLVIVEYIDETWKNNPILPSDPYQRSFARFWSKFIDDKIVGASWKSVFTVDEKEREKNVEESLEALQFLENELQDKRFFGGDEFGFVDIAGVFIAFSIPIFQEVAGLQLFTSEKFPKLFKWSQELINHPVVKDVLPPREPLFAFFKSLYESLSASK	13
se6.pk0048.d7: soybean type III GST encoded by cDNA insert in clone se6.pk0048.d7 (protein) MADEVVLLDFWPSPFGMRVRIALAEKGIKYESKEEDLQNKSPLLLKMNPVHKKIPVLIHNGKPICESLVAVQYIEEVWNDRNPLLPSDPYQRAQARFWADFVDNKIFDLGRKIWTSKGEEKEAAKKEFIEALKLLEEQLGDKTYFGGDDLGFVDIALIPFDTWFKTFGSLNIESECPKFVAWAKRCLQKDSVAKSLPDQHKVYEFIMDIRKKFDIE	4
